Tested on: SF-539 CNS
Assay Text: NCI tumour cell line growth inhibition, 48 h; in the data active = GI50 below about 0.43 µM; inactive = the rest
Classes used: active, inactive

[
  {
    "Compound": "C=CCN1C=CC(=O)[C@H](O[Si](C)(C)C(C)(C)C)[C@@H]1/C=C/c1ccccc1",
    "Label": "inactive"
  },
  {
    "Compound": "CCCN1CCN(c2ccc3nc(-c4ccc5nc(-c6cc(OC)ccc6OC)[nH]c5c4)[nH]c3c2)CC1",
    "Label": "inactive"
  },
  {
    "Compound": "CC1(C)CC(n2cnc(-c3ccc(F)cc3)c2-c2ccnc(N)n2)CC(C)(C)N1",
    "Label": "inactive"
  },
  {
    "Compound": "COc1cc2c(Oc3ccc4[nH]c(C)cc4c3F)ccnc2cc1OCC1(N)CC1",
    "Label": "active"
  },
  {
    "Compound": "COc1cccc(-c2nc3sccn3c2-c2ccnc(NCCNS(=O)(=O)c3ccccc3)c2)c1",
    "Label": "inactive"
  },
  {
    "Compound": "Cc1cc(N2CCCC2)nc(NC2CCCC(Nc3ccnc4cc(Cl)ccc34)C2)n1 (stereo not given)",
    "Label": "inactive"
  },
  {
    "Compound": "CCN=c1cc2sc3cc(NCC)c(C)cc3nc-2cc1C",
    "Label": "inactive"
  },
  {
    "Compound": "O=CN1N=C(c2ccc(Cl)cc2)CC1c1cccc(Nc2ccnc3cc(Cl)ccc23)c1 (stereo not given)",
    "Label": "inactive"
  },
  {
    "Compound": "COc1ccc(CNc2c3ccccc3nc3ccc(OC)cc23)cc1",
    "Label": "inactive"
  },
  {
    "Compound": "c1cc(OCCN2CCCCC2)ccc1CNc1ccc2nc(CCC3CCCCC3)[nH]c2c1",
    "Label": "inactive"
  }
]
